These data points were gathered from PubChem BioAssay AID2701.

Molecular target: 4'-phosphopantetheinyl transferase ffp (Bacillus subtilis) (UniProt Q9F4F7)
Sequence (Q9F4F7 whole entry, looked up): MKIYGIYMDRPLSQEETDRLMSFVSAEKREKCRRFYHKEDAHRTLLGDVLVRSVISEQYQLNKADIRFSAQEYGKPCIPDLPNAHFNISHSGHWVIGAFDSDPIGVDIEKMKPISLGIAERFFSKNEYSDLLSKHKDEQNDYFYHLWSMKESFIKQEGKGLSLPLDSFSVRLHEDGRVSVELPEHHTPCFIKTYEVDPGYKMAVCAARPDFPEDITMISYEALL
Test: Confirmation qHTS Assay for Inhibitors of Bacillus subtilis Sfp phosphopantetheinyl transferase (PPTase)
Conditions: Sfp PPTase enzymatic assay, qHTS titration; series mostly up to 114 µM
The list shows a part of the results. Inconclusive results are not listed. Activity calls are given as the source filed them. Calls come from the whole dose curve; as a rule, active = well fitted inhibition curve with a large enough effect; inconclusive = small, poorly fitted or top-dose-only effect, or another doubt; inactive = no such curve, though single readings can be large or run the other way.
Respond with a class label; see YES = active, NO = inactive

Some entries whose results are on file:
{"compound": "OCCN1CCN(C(=S)c2ccc(-c3ccccc3)cc2)CC1", "assigned_label": "YES"}
{"compound": "FC(F)(F)C1CCCN(c2nsc3ccccc23)C1 (stereo not drawn)", "assigned_label": "YES"}
{"compound": "c1ccc(-c2nc(NCc3ccco3)c3ccccc3n2)cc1", "assigned_label": "NO"}
{"compound": "CC(C)(C)c1nnc(NC(=O)C2c3ccccc3Oc3ccccc32)s1", "assigned_label": "YES"}

Request: Assay result, entry CCCOC(=O)Nc1sc2c(c1C(=O)OCC)CCC2 — outcome?
Response: YES

Request: Assay result, entry NC(=O)c1c(NC(=O)CSc2nnc(-c3ccco3)n2N)sc2c1CCCC2 — outcome?
Response: YES

Request: Assay result, entry COc1ccc(OCc2nnc3n2N=C(c2ccccc2)C(CC(=O)O)S3)cc1 (stereo not drawn) — outcome?
Response: YES

Request: Assay result, entry O=c1[nH]c2ccccc2n2c(-c3ccccc3)nnc12 — outcome?
Response: YES
